Tested on: RAW-Dual
Experiment: NF-kB SEAP reporter activity, fold change vs agonist alone; higher = enhanced NF-kB activity
Settings: library stock concentration (final ~1000-fold dilution): 10 mM; cytotoxicity flag (confluency mask): not cytotoxic; agonist: MPLA (TLR4) […]
In all, about 2,900 compounds were measured (“NF-kB SEAP reporter activity, fold change vs agonist alone”: median about 0.99, highest 2% from about 2.6 on). The sample as a whole holds a higher share of the highest values than the screen did.
Reported NF-kB SEAP reporter activity values are given for each entry in this list.
PROPERTY: NF-kB SEAP reporter activity

- COMPOUND: "CCC1=CC2CN3CCc4c([nH]c5ccccc45)C(C(=O)OC)(C2)C13 (stereo unspecified)"
  TARGET_UNDER_TEST: "RAW-Dual"
  PROPERTY: "NF-kB SEAP reporter activity"
  MEASURED_RESULT: 1.11
- COMPOUND: "COc1cc(C)[nH]c(=O)c1CNC(=O)c1c(C)n(C(C)C2CCN(CC(F)(F)F)CC2)c2ccccc12 (stereo unspecified)"
  TARGET_UNDER_TEST: "RAW-Dual"
  PROPERTY: "NF-kB SEAP reporter activity"
  MEASURED_RESULT: 0.914
- COMPOUND: "CCNc1nc(Cl)nc(NC(C)C)n1"
  TARGET_UNDER_TEST: "RAW-Dual"
  PROPERTY: "NF-kB SEAP reporter activity"
  MEASURED_RESULT: 1.29
- COMPOUND: "CC12NC(Cc3ccccc31)c1ccccc12.O=C(O)/C=C\\C(=O)O (stereo unspecified)"
  TARGET_UNDER_TEST: "RAW-Dual"
  PROPERTY: "NF-kB SEAP reporter activity"
  MEASURED_RESULT: 1.1
- COMPOUND: "Br.COc1ccc2c(c1)C13CCCCC1C(C2)N(C)CC3.O (stereo unspecified)"
  TARGET_UNDER_TEST: "RAW-Dual"
  PROPERTY: "NF-kB SEAP reporter activity"
  MEASURED_RESULT: 0.902
- COMPOUND: "Cl.NCCc1ccc(S(=O)(=O)F)cc1"
  TARGET_UNDER_TEST: "RAW-Dual"
  PROPERTY: "NF-kB SEAP reporter activity"
  MEASURED_RESULT: 1.23
- COMPOUND: "O.O=C1C=CCC2C3CCCN4CCCC(CN12)C34 (stereo unspecified)"
  TARGET_UNDER_TEST: "RAW-Dual"
  PROPERTY: "NF-kB SEAP reporter activity"
  MEASURED_RESULT: 0.792
- COMPOUND: "Cc1c(C(C)C2NCC(C)CC2O)ccc2c1CC1C2CC=C2CC(O)CCC21C (stereo unspecified)"
  TARGET_UNDER_TEST: "RAW-Dual"
  PROPERTY: "NF-kB SEAP reporter activity"
  MEASURED_RESULT: 1.15
- COMPOUND: "CCCCCCC[n+]1ccc(-c2cc[n+](CCCCCCC)cc2)cc1"
  TARGET_UNDER_TEST: "RAW-Dual"
  PROPERTY: "NF-kB SEAP reporter activity"
  MEASURED_RESULT: 2.11
- COMPOUND: "COc1cc(C)[nH]c(=O)c1CNC(=O)c1c(C)n(C(C)C2CCOCC2)c2ccccc12 (stereo unspecified)"
  TARGET_UNDER_TEST: "RAW-Dual"
  PROPERTY: "NF-kB SEAP reporter activity"
  MEASURED_RESULT: 1.02
- COMPOUND: "CC[C@H]1CN2CC[C@]3(C(=O)Nc4ccccc43)[C@@H]2C[C@@H]1/C(=C\\OC)C(=O)OC"
  TARGET_UNDER_TEST: "RAW-Dual"
  PROPERTY: "NF-kB SEAP reporter activity"
  MEASURED_RESULT: 1.04
